Numbers sourced from ChEMBL document CHEMBL5212743.

target: Protein-tyrosine kinase 2-beta (Homo sapiens, UniProt Q14289)
Sequence (Q14289 whole entry): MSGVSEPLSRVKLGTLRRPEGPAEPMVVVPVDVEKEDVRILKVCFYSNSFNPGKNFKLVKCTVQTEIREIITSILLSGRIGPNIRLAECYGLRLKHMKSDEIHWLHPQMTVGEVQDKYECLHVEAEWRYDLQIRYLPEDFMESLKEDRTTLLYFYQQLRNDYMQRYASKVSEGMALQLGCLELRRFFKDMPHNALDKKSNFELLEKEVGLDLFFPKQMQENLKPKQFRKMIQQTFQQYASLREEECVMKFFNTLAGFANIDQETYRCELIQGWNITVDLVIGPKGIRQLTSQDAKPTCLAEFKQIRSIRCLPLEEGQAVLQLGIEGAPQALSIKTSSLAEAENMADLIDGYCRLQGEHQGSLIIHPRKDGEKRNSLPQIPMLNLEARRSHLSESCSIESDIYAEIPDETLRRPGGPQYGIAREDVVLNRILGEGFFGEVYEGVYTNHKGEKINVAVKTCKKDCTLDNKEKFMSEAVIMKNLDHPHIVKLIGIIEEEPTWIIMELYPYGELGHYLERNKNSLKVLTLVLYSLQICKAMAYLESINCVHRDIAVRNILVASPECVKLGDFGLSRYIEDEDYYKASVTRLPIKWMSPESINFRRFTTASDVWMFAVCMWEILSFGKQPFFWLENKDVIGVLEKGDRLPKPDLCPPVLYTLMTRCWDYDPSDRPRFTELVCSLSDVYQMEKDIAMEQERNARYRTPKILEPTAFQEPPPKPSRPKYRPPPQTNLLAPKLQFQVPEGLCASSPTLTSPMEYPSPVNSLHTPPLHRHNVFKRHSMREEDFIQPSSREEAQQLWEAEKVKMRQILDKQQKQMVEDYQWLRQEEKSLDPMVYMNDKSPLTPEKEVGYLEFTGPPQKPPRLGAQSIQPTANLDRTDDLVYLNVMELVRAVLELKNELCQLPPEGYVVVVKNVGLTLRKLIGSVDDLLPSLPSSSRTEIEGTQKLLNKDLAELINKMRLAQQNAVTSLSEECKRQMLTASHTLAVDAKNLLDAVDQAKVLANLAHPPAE
assay_comment: Selectivity interaction (Enzymatic assay) EUB0000609a PTK2B
measured_endpoint: pIC50
Answer as the number alone; pIC50 is minus log10 of concentration in mol/L.

Ask: Look up and report measured pIC50 for this entry: COc1cc(N2CCC(O)CC2)ccc1Nc1cc(Nc2ccccc2S(=O)(=O)C(C)C)c2cc[nH]c2n1
Result: 6.55

* * *

target: Histone acetyltransferase KAT2B (Homo sapiens, UniProt Q92831)
Sequence (Q92831 whole entry): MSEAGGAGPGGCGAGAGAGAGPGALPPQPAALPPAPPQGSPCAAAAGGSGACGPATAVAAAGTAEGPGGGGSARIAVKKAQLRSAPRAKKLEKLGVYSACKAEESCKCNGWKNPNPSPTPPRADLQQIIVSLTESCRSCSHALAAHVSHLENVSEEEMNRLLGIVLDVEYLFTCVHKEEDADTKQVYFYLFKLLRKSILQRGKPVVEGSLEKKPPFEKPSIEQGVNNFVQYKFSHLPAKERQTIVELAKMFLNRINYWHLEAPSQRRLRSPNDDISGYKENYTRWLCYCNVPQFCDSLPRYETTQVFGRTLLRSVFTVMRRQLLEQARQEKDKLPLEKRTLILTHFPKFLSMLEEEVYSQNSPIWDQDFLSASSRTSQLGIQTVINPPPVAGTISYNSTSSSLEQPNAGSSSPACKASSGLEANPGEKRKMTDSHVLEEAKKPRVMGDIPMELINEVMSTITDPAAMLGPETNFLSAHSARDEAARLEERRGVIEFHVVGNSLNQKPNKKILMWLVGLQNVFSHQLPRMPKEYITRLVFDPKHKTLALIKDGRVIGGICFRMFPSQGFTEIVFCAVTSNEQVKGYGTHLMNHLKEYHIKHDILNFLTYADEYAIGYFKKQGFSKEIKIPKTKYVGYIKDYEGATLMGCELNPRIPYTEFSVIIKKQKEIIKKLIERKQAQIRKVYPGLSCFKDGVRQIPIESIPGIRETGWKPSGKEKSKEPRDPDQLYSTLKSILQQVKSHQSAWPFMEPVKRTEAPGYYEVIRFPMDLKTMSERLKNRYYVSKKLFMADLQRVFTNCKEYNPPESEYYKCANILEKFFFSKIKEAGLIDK
assay_comment: Selectivity interaction (BROMOscan™ panel (DiscoverX)) EUB0000253b KAT2B
measured_endpoint: Kd (nM)
Your answer is read as nM, so omit the unit and give the number.

Ask: Look up and report measured Kd for this entry: Cc1c(Nc2ccc(S(=O)(=O)N3CCN(C)CC3)cc2F)nc2ccc(-c3cnn(C4CC4)c3)cn2c1=O
Result: 74
